Documented TGI across a set of compounds
System: SK-MEL-28 melanoma
Assay: NCI tumour cell line growth inhibition, 48 h
Expressed in µM, but write only the number.

CN1CCN(c2ccc(N3Cc4ccccc4OC4=C3C(=O)c3c(O)ccc(O)c3C4=O)cn2)CC1
0.762

Now look at this one.
**Query** Look up TGI with SK-MEL-28 melanoma for this compound: `CCN(CC)CCOc1nc2c3ccc(Cl)cc3nn2c2ccccc12`
**Result** 3.57

====

Tested on: HCT-116 colon
Assay: NCI tumour cell line growth inhibition, 48 h
Parameter TGI: see the listing below.

Please review the following examples before continuing.
CC1CN=C(N(C(=O)Nc2ccccc2)c2ccccc2)S1 (stereo unspecified)
> 100 µM
CCCCCCCCCCCC1=NCCN1
> 100 µM
CC(C)OP(=O)(OC(C)C)C([CH2][Sn]([CH3])([CH3])[Cl])P(=O)(OC(C)C)OC(C)C
42.8 µM
CCOc1cc(C(c2c(O)c3ccccc3oc2=O)c2c(O)c3ccccc3oc2=O)ccc1OC
37.9 µM
C[C@H](O)CNc1cc(-c2[nH]c3cccnc3c2-c2ccc(F)cc2)ccn1
> 25 µM

The record that follows has no TGI shown yet.
**Query** Please report the recorded TGI for CCCCCC(/C=C/C1CCC(=O)C1)OCOCCOC (stereo unspecified) .
**Result** > 73.6 µM

====

Measured TGI values are reported for all entries that follow.
Tested on: NCI-H226 lung
Assay: NCI tumour cell line growth inhibition, 48 h

COC(=O)C1CCC(NC(=O)c2csc([C@@H](C[C@H](C(C)C)N(C)C(=O)[C@@H](NC(=O)[C@H]3CCCCN3C)C(C)C)OC(C)=O)n2)CC1 (some centres undefined)
> 33.3 µM
Cc1cn(CCCCCCOC(=O)NC(CCCN=C(N)N)C(=O)O)c(=O)[nH]c1=O (centres undefined)
> 100 µM
CCN(CC)CCNC(=O)c1cn2ncnc(Oc3ccc(NC(=O)Nc4ccc(Cl)c(C(F)(F)F)c4)cc3)c2c1C
3.89 µM
Cc1cc(C)c(C#N)c(SCC(=O)c2sc3c(C#N)c(C)cc(C)[n+]3c2[O-])n1
> 100 µM
Cn1c2c(c3ccccc31)C1C(=O)N(c3ccccc3)C(=O)C1CC2 (centres undefined)
> 303 µM
CCOc1cc(C(c2c(O)c3ccccc3oc2=O)c2c(O)c3ccccc3oc2=O)ccc1OC
59.1 µM

**Query** Provide value of TGI for this record tested with NCI-H226 lung: O=C1OC(c2cccc(C(F)(F)F)c2)c2ccc3ccccc3c21 (centres undefined)
**Result** > 100 µM

**Query** Now consider `Nc1ccc2nc3n(c(=O)c2c1)CCCCC3` and answer again.
**Result** > 100 µM

**Query** Subsequent entry: CCOc1ccc(NC(=O)C(=O)C2C(=O)Nc3ccccc3S2=O)cc1 (centres undefined)
**Result** > 100 µM

====

compounds and their reported TGI
Tested on: UACC-62 melanoma
Assay: NCI tumour cell line growth inhibition, 48 h

Some compounds with known TGI results, for comparison:
Cc1c(C(=O)O)nc(/C=C/C(=O)O)[nH]c1=O
> 100 µM
CCOC(=O)C(NC(=O)CC)(Nc1ccc(S(=O)(=O)Nc2ncccn2)cc1)C(F)(F)F (stereo not given)
> 100 µM
c1ccc2c(c1)c(N1CCCCC1)cc1nc3c(cc(N4CCCCC4)c4ccccc43)nc12
> 100 µM

**Query** Would you kindly share the measured TGI for COS(=O)(=O)OCCC(NC(=O)OCc1ccccc1)C(=O)OCc1ccccc1 (stereo not given) ?
**Result** > 100 µM

**Query** Now the same for `N#Cc1cc(-c2nc3ccc(F)cc3s2)ccc1N`
**Result** > 100 µM

**Query** What about this compound? `OCC#Cc1ccccc1C#CCCCCCCC#Cc1ccccc1C#CCO`
**Result** 31.4 µM

Ref: PubChem BioAssay (NCI)
